Recorded TGI, one value per entry.
- Tested on: MDA-MB-468 breast
- measurementProtocol: NCI tumour cell line growth inhibition, 48 h
valueKind: TGI (µM)

>  <compound>
COc1cc(C(=O)c2cocc2C(=O)c2ccc3c(c2)OCO3)cc(OC)c1OC

>  <testedSystem>
MDA-MB-468 breast

>  <ltGtEq>
>

>  <measuredResult>
100

$$$$
>  <compound>
CC(C)c1ccc(NC(=O)Cc2ccc(Nc3ncnc4cc(-c5cnn(CCN(C)C)c5)ccc34)cc2)cc1

>  <testedSystem>
MDA-MB-468 breast

>  <ltGtEq>
=

>  <measuredResult>
3.72

$$$$
>  <compound>
CS(=O)(=O)N(c1cc(-c2ccc3ncnc(Nc4ccc(F)c(Cl)c4)c3c2)cnc1Cl)S(C)(=O)=O

>  <testedSystem>
MDA-MB-468 breast

>  <ltGtEq>
=

>  <measuredResult>
2.55

$$$$
>  <compound>
COc1ccc(S(=O)(=O)N(C(C)=O)c2ccccc2/C=C/c2cc[n+]([O-])cc2)cc1

>  <testedSystem>
MDA-MB-468 breast

>  <ltGtEq>
>

>  <measuredResult>
10

$$$$
>  <compound>
CCN(CC)CCCCNc1c2ccc(Cl)cc2nc2ccc(OC)cc12

>  <testedSystem>
MDA-MB-468 breast

>  <ltGtEq>
=

>  <measuredResult>
1.83

$$$$
>  <compound>
Cc1cc(O)c(-c2ccc([C@@H](C)CN(C)C)cc2)c2c1[nH]c(=O)c1sccc12

>  <testedSystem>
MDA-MB-468 breast

>  <ltGtEq>
=

>  <measuredResult>
3.94

$$$$
>  <compound>
O=C(/C=C/C12c3ccccc3C(c3ccccc31)C1C(=O)NC(=O)C12)c1ccccc1 (stereo not given)

>  <testedSystem>
MDA-MB-468 breast

>  <ltGtEq>
=

>  <measuredResult>
3.68

$$$$
>  <compound>
COc1cc(NCCCCCN=C(N)NC(N)=NC(C)C)c2ncccc2c1

>  <testedSystem>
MDA-MB-468 breast

>  <ltGtEq>
=

>  <measuredResult>
0.594

$$$$
>  <compound>
CC(C)(C)OC(=O)N[C@@H](Cc1ccccc1)C(=O)N(Cc1ccccc1)C1(C(=O)NCc2ccccc2)CCN(Cc2ccccc2)CC1

>  <testedSystem>
MDA-MB-468 breast

>  <ltGtEq>
=

>  <measuredResult>
5.91

$$$$
>  <compound>
CCn1c(-c2nonc2N)nc2c(N3CCCC3)nccc21

>  <testedSystem>
MDA-MB-468 breast

>  <ltGtEq>
>

>  <measuredResult>
25

$$$$
